- assay.comment: Unbound brain-to-plasma concentration ratio in rat at 10 mg/kg, po qd for 4 days by LC/MS/MS analysis
- Format: ADME, organism-based
- run.parameters: brain and plasma (unbound), time 4 day, read-out: K(p,uu,brain)
reported.endpoint: Kp uu at 96 h

// lookup Kp uu at 96 h for "O[C@H]1COC[C@H]1N1CC[C@@H](c2cc3nc(Nc4cnn([C@@H]5CC5(F)F)c4Cl)ncc3cc2Cl)[C@H](F)C1" 0.67

----------
- assay.comment: Oral bioavailability in Wistar Han rat at 10 mg/kg by LC-MS/MS analysis
- Assay type: ADME, organism-based
- run.parameters: in vivo
Measured bioavailability, listed per entry for reference.
Record the value in %, omitting the unit from your answer.

molecule | bioavailability, %
Cc1c(Nc2ncc3cc(Cl)c(C4CCN(C5COC5)CC4)cc3n2)cnn1C1CC1 | 26

// lookup bioavailability for "CC(C)(O)Cn1ncc(Nc2ncc3cc(Cl)c(C4CCN(C5COC5)CC4)cc3n2)c1Cl" 95

// lookup bioavailability for FC1CN(C2COC2)CCC1c1cc2nc(Nc3cnn(C4CC4)c3Cl)ncc2cc1Cl (centres undefined) 54

// lookup bioavailability for "Cc1c(Nc2ncc3cc(Cl)c(C4CCN([C@@H]5COC[C@@H]5O)CC4)cc3n2)cnn1[C@@H]1CC1(F)F" 64

----------
Measured Papp A→B at 3 h, up to 1 µM, listed per entry for reference.
- Tested on: rat Mdr1a (P-gp)
- assay.comment: Apparent permeability from apical to basolateral side in rat Mdr1a-transfected pig LLC-PK1 cells at 0.1 to 1 uM measured after 3 hrs by LC/MS/MS analysis
- Format: ADME, cell-based, Sus scrofa
- run.parameters: dose 0.1-1 µM
Record the value in ×10⁻⁶ cm/s, omitting the unit from your answer.

compound | Papp A→B at 3 h, up to 1 µM, ×10⁻⁶ cm/s
N#CC1(c2ccc3cnc(Nc4cnn(C5CCOCC5)c4Cl)nc3c2)CC12CC2 (stereo unspecified) | 31
FC1CN(C2COCC2F)CCC1c1cc2nc(Nc3cnn(C4CC4(F)F)c3Cl)ncc2cc1Cl (stereo unspecified) | 23
Clc1cc2cnc(Nc3cnn(C4CC4)c3Cl)nc2cc1N1CCN(C2COC2)CC1 | 33
FC1CN(C2COC2)CCC1c1cc2nc(Nc3cnn(C4CC4(F)F)c3Cl)ncc2cc1Cl (stereo unspecified) | 31
Cc1c(Nc2ncc3ccc(N4C(=O)OC[C@@H]4C)cc3n2)cnn1C1CCOCC1 | 27

Could you now consider this next compound?
// lookup Papp A→B at 3 h, up to 1 µM for FC1CN(C2COC2)CCC1c1cc2nc(Nc3cnn(C4CC4)c3Cl)ncc2cc1Cl (stereo unspecified) 32

----------
- assay.comment: MRT in Rhesus monkey at 0.1 mg/kg, iv by LC-MS/MS analysis
- Assay type: ADME, organism-based, Macaca mulatta
- run.parameters: in vivo
reported.endpoint: MRT

// lookup MRT for "Cc1c(Nc2ncc3cc(Cl)c(C4CCN([C@@H]5COC[C@@H]5O)CC4)cc3n2)cnn1[C@@H]1CC1(F)F" 4.8 h

----------
- Tested on: rat Mdr1a (P-gp)
- assay.comment: Efflux ratio of apparent permeability across basolateral to apical side over apical to basolateral side in rat Mdr1a-transfected pig LLC-PK1 cells at 0.1 to 1 uM measured after 3 hrs by LC/MS/MS analysis
- Format: ADME, cell-based, Sus scrofa
- run.parameters: dose 0.1-1 µM
reported.endpoint: efflux ratio at 3 h, up to 1 µM
# output: bare number, no unit

Reference set, count: 10
compound | reported.measurement
Cc1c(Nc2ncc3cc(Cl)c(C4CCN(C5COC5)CC4)cc3n2)cnn1C1CC1 | 3
Cc1c(Nc2ncc3ccc(C4(C#N)CC45CC5)cc3n2)cnn1C1CCOCC1 (stereo not given) | 7.2
O[C@H]1COC[C@H]1N1CC[C@@H](c2cc3nc(Nc4cnn([C@@H]5CC5(F)F)c4Cl)ncc3cc2Cl)[C@H](F)C1 | 3.7
N#CC1(c2ccc3cnc(Nc4cnn(C5CCOCC5)c4Cl)nc3c2)CC12CC2 (stereo not given) | 0.9
CC(C)(O)Cn1ncc(Nc2ncc3cc(Cl)c(C4CCN(C5COC5)CC4)cc3n2)c1Cl | 4.2
Cc1c(Nc2ncc3ccc(C4(C#N)CC4)cc3n2)cnn1C1CCOCC1 | 6.4
FC(F)Cn1ncc(Nc2ncc3cc(Cl)c(C4CCN(C5COC5)CC4F)cc3n2)c1Cl (stereo not given) | 1
Clc1cc2cnc(Nc3cnn(C4CC4)c3Cl)nc2cc1N1CCN(C2COC2)CC1 | 0.9
Cc1c(Nc2ncc3ccc(N4C(=O)OC[C@@H]4C)cc3n2)cnn1C1CCOCC1 | 35
Cc1c(Nc2ncc3cccc(C4CC4)c3n2)cnn1C1CCOCC1 | 0.65

// lookup efflux ratio at 3 h, up to 1 µM for "Clc1cc2cnc(Nc3cnn(C4CC4)c3Cl)nc2cc1C1CCN(C2COC2)CC1" 0.5

// lookup efflux ratio at 3 h, up to 1 µM for FC1CN(C2COC2)CCC1c1cc2nc(Nc3cnn(C4CC4(F)F)c3Cl)ncc2cc1Cl (stereo not given) 1.2

// lookup efflux ratio at 3 h, up to 1 µM for "Cc1c(Nc2ncc3cc(Cl)c(C4CCN([C@@H]5COC[C@@H]5O)CC4)cc3n2)cnn1[C@@H]1CC1(F)F" 4.3

// lookup efflux ratio at 3 h, up to 1 µM for FC1CN(C2COCC2F)CCC1c1cc2nc(Nc3cnn(C4CC4(F)F)c3Cl)ncc2cc1Cl (stereo not given) 1.6

// lookup efflux ratio at 3 h, up to 1 µM for FC1CN(C2COC2)CCC1c1cc2nc(Nc3cnn(C4CC4)c3Cl)ncc2cc1Cl (stereo not given) 1.3
